Every entry's value here was drawn from patent US20230235054A1.

Target: T1, cynoNectin4 antigen (cynomolgus (cyno), UniProt A0A2K5WES1 32-349)
T1 construct: construct not described; also called cynomolgus (cyno) Nectin-4
T1 sequence: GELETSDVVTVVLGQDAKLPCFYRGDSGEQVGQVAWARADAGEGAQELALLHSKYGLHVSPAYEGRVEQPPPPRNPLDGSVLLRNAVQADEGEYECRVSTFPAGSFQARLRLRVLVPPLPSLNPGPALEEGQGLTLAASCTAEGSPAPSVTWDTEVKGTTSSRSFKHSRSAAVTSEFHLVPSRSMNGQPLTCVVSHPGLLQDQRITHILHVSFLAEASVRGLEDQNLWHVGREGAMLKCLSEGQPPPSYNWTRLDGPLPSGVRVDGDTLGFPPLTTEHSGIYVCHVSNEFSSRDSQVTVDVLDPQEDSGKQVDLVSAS
Assay: ELISA, coated antigen, PSB pH 7.4
The reader will find reported EC50 values listed item by item below.
RESULT_TYPE: EC50 (µg/mL)

BAP-143-07-03-12 (antibody, V domains shown, Used as a conjugate with a linker payload (CAB ADC)) VH: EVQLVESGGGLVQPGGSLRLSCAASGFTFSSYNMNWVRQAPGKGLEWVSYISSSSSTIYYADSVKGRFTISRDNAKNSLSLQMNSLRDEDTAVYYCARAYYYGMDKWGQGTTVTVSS VL: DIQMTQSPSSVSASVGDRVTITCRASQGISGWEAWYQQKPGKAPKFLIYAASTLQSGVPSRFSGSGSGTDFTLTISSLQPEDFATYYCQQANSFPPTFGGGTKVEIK = 0.086
BAP-143-wildtype (antibody, V domains shown, 150 kDa used in SPR; also called BAP143-00-00; benchmark (BM)) VH: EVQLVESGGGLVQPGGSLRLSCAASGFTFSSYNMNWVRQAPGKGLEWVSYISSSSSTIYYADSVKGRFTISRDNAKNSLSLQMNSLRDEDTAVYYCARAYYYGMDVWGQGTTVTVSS VL: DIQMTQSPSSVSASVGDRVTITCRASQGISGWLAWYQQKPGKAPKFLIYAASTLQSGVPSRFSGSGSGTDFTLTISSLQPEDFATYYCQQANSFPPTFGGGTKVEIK = 0.0128
BAP-143-06-24-16 (antibody, V domains shown, Used as a conjugate with a linker payload (CAB ADC)) VH: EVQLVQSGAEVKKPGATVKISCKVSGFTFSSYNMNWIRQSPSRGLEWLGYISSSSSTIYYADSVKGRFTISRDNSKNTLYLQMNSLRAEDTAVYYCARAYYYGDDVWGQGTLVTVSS VL: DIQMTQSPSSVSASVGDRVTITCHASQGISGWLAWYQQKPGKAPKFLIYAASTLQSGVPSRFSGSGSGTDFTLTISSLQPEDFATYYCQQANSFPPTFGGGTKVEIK = 0.0282
BAP-143-06-33-03 (antibody, V domains shown, Used as a conjugate with a linker payload (CAB ADC)) VH: QVQLVQSGAEVKKPGASVKVSCKASGFTFSSYNMNWVRQARGQRLEWIGYISSSSSTIYYADSVKGRFTISRDNSKNTLYLQMNSLRAEDTAVYYCARAYYYGMDKWGQGTLVTVSS VL: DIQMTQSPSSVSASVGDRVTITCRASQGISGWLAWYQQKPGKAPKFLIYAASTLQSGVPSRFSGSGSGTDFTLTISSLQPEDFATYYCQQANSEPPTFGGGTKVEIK = 0.0723
